Consider the following molecules and their measured T/C readings.
- Tested on: BDF1 mice, L1210 Methyl-GAG-resistant leukemia, survival T/C
- protocol_text: NCI In Vivo Anticancer Drug Screen. Data for tumor model L1210 Leukemia resistant to Methyl-GAG; NSC 32946 (subcutaneous) in B6D2F1 (BDF1) mice
- study_conditions: endpoint: mean survival time; dose: 25.0 mg/kg/injection; schedule: Q01DX Z (ip); vehicle: carboxymethylcellulose (CMC); higher = longer survival
Toxic doses and inconclusive results are not listed.

Here is how some molecules turned out for T/C.
{"molecule": "O=C(Nc1ccc(C2=NCCN2)cc1)c1ccc(C(=O)Nc2ccc(C3=NCCN3)cc2)cc1", "tested_on": "BDF1 mice, L1210 Methyl-GAG-resistant leukemia, survival T/C", "T/C": "98 % of control"}
{"molecule": "Cn1c(N)nc2nc[nH]c2c1=S", "tested_on": "BDF1 mice, L1210 Methyl-GAG-resistant leukemia, survival T/C", "T/C": "102 % of control"}
{"molecule": "CSc1ncnc2nc[nH]c12", "tested_on": "BDF1 mice, L1210 Methyl-GAG-resistant leukemia, survival T/C", "T/C": "111 % of control"}
{"molecule": "O=C(O)CCCc1ccc(N(CCCl)CCCl)cc1", "tested_on": "BDF1 mice, L1210 Methyl-GAG-resistant leukemia, survival T/C", "T/C": "104 % of control"}
{"molecule": "CCCCn1cnc2c(=S)nc[nH]c21", "tested_on": "BDF1 mice, L1210 Methyl-GAG-resistant leukemia, survival T/C", "T/C": "103 % of control"}

Continue with the molecule presented below.
Query (molecule): `Nc1ncnc2[nH]ncc12` ; field requested: T/C
90 % of control

###

- Test system: BDF1 mice, L1210 Methyl-GAG-resistant leukemia, survival T/C
- protocol_text: NCI In Vivo Anticancer Drug Screen. Data for tumor model L1210 Leukemia resistant to Methyl-GAG; NSC 32946 (subcutaneous) in B6D2F1 (BDF1) mice
- study_conditions: endpoint: mean survival time; dose: 125.0 mg/kg/injection; schedule: Q01DX Z (ip); vehicle: carboxymethylcellulose (CMC); higher = longer survival
Toxic doses and inconclusive results are not listed.
measurement_name: T/C

{"molecule": "CCOC(=O)NP(=O)(N1CC1(C)C)N1CC1(C)C (stereo not given)", "T/C": "95 % of control"}
{"molecule": "O=c1[nH]c(=O)n(C2CC(O)C(CO)O2)cc1Br (stereo not given)", "T/C": "113 % of control"}
{"molecule": "O=c1[nH]c(=O)n(C2CC(O)C(CO)O2)cc1I (stereo not given)", "T/C": "112 % of control"}
{"molecule": "CCCCNc1ncnc2c1cnn2C", "T/C": "98 % of control"}
{"molecule": "O=CCC(O)C(O)C(O)CO (stereo not given)", "T/C": "103 % of control"}

Query (molecule): `O=c1cn[nH]c(=O)[nH]1` ; field requested: T/C
106 % of control

Query (molecule): `Clc1ncnc2nc[nH]c12` ; field requested: T/C
121 % of control

Query (molecule): `O=CN(O)CC(=O)O` ; field requested: T/C
101 % of control

Query (molecule): OCC1OC(n2cnc3c(Cl)ncnc32)C(O)C1O (stereo not given) ; field requested: T/C
94 % of control

Query (molecule): `CN(C)c1nc(N(C)C)nc(N(C)C)n1` ; field requested: T/C
95 % of control
